Test Method Notes: amyloid nucleation score (Sup35N fusion, yeast selection) (log enrichment); library NNK3; higher = more nucleation; inactive = no reads after selection;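 also: zero at mode of non-aggregating sequences after 7 days selection at 30°C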
Property Name: amyloid nucleation score

Substance	amyloid nucleation score
YLFLVRSQTLRVRYWTRNPP	inactive
DCLFRNLMS	inactive
SDFEAFSFGDNMVFLIEMEG	inactive
LYAQNLV	inactive
FRVSVIFIFGCHMFGVLMTP	inactive

Each of the following entries comes with a recorded value; kindly state amyloid nucleation score for each.
1. VCAVSFGRWYG
2. ASRSMTGSLCLFAFMV
3. INLGMP
4. LWRLRAIWVNNVMAVRKFVG
5. SSYVQFYLGWLGRYCNGSYV
6. IRASFEPWVLVRVFYSLCYG

[out]
1. inactive
2. inactive
3. -0.279
4. -0.68
5. inactive
6. inactive

Quick batch: amyloid nucleation score for everything below.
1. TAQTNPGVYYS
2. HYSAFTRQSVSSKDTDT
3. RMRYFDVYIWSDMRNEPGGL
4. SPALQMWKACTWLNRTLSPV
5. NYKVRLNQDFENRHRYSMDT
6. VVATTLEFMWRHMGTYFWGI

[out]
inactive
-0.582
inactive
0.582
inactive
inactive

Return reported amyloid nucleation score values for all items listed beneath this line.
1. TCRMVRGSMMDSAVV
2. RASMYG
3. FQSDRVCFIGGWTSNRVGWM
4. GRSGYH
5. ILIGPSGFMYLDVSFFQFQR
6. RANVQDMTKISYVFTYTWYV

[out]
1: inactive; 2: inactive; 3: 0.699; 4: inactive; 5: 0.856; 6: inactive
